Attribution: patent US20240400572A1

Property: concentration at 1 hr; scope: individual molecules
# TEST_METHOD_NOTES: Pharmacokinetic study, plasma
# Assay type: in vivo
# TEST_PARAMETERS: male, C57BL/6, mouse, plasma, po, 20 mg/kg, male C57BL/6 mice, 1 hr, read-out: plasma Concentration, Individuals
QUANTITY_KIND: concentration at 1 hr (ng/mL)

[
  {
    "MOLECULE": "NC(=O)c1ncn2c(=O)n(CCF)nnc12 [KL-50]",
    "OBSERVED_RESULT": 10500
  },
  {
    "MOLECULE": "CNC(=O)c1ncn2c(=O)n(CCF)nnc12 [Compound I-1]",
    "OBSERVED_RESULT": 2180
  }
]
